# system: cloned human δ receptor (Homo sapiens)
# Construct: expressed in transfected cells; host or cells: human 293S (HEK-293S) cells, geneticin-selected
# Sequence (P41143 whole entry): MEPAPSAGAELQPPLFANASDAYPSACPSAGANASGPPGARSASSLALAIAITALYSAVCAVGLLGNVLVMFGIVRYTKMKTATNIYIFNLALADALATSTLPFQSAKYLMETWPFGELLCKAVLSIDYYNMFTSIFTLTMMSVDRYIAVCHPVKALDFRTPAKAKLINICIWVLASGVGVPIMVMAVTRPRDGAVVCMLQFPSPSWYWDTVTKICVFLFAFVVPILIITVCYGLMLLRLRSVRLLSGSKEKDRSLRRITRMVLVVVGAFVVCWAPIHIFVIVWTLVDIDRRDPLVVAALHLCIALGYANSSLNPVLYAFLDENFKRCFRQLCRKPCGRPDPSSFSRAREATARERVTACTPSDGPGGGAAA
# assayDetails: GTP[γ]35S binding functional assay, membranes from HEK-293S cells expressing cloned human opioid receptors (HDELTA)
# Type: biochemical
# Experimental: A. Human 293S cells expressing cloned human μ, δ, and κ receptors and neomycin resistance were grown in suspension at 37° C. and 5% CO2 in shaker flasks containing calcium-free DMEM10% FBS, 5% BCS, 0.1% Pluronic F-68, and 600 μg/ml geneticin. […] The agonist activity of the compounds is measured by determining the degree to which the compounds receptor complex activates the binding of GTP to G-proteins to which the receptors are coupled. […]
Listed here: items and their measured Emax.
assayReadout: Emax (%)

molecule | system | unitInfo | observedValue
CCN(CC)C(=O)c1ccc(C(=C2CCN(Cc3ncc[nH]3)CC2)c2cccc3cccnc23)cc1 [Example 8] | cloned human δ receptor (Homo sapiens) | % | 111
CCN(CC)C(=O)c1ccc(C(=C2CCN(Cc3ccco3)CC2)c2cccc3cccnc23)cc1 [Example 3] | cloned human δ receptor (Homo sapiens) | % | 103
CCN(CC)C(=O)c1ccc(C(=C2CCN(Cc3ccccc3)CC2)c2cccc3cccnc23)cc1 [Example 2] | cloned human δ receptor (Homo sapiens) | % | 90.5
CCN(CC)C(=O)c1ccc(C(=C2CCN(Cc3c[nH]cn3)CC2)c2cccc3cccnc23)cc1 [Example 9] | cloned human δ receptor (Homo sapiens) | % | 100
CCN(CC)C(=O)c1ccc(C(=C2CCN(Cc3ccncc3)CC2)c2cccc3cccnc23)cc1 [Example 10] | cloned human δ receptor (Homo sapiens) | % | 118
CCN(CC)C(=O)c1ccc(C(=C2CCN(Cc3ccccn3)CC2)c2cccc3cccnc23)cc1 [Example 7] | cloned human δ receptor (Homo sapiens) | % | 97.6
CCN(CC)C(=O)c1ccc(C(=C2CCN(Cc3cccs3)CC2)c2cccc3cccnc23)cc1 [Example 4] | cloned human δ receptor (Homo sapiens) | % | 98.5
CCN(CC)C(=O)c1ccc(C(=C2CCN(Cc3ccsc3)CC2)c2cccc3cccnc23)cc1 [Example 6] | cloned human δ receptor (Homo sapiens) | % | 123
CCN(CC)C(=O)c1ccc(C(=C2CCN(Cc3ccoc3)CC2)c2cccc3cccnc23)cc1 [Example 5] | cloned human δ receptor (Homo sapiens) | % | 99
